# tested target: Cbl-B (Homo sapiens, UniProt Q13191)
# Construct: MSD-Based Assay for Degradation of Cbl-B in THP-1 Cells; endogenous in cells; host or cells: THP-1 (title) / Jurkat (protocol text)
# Sequence (Q13191 whole entry): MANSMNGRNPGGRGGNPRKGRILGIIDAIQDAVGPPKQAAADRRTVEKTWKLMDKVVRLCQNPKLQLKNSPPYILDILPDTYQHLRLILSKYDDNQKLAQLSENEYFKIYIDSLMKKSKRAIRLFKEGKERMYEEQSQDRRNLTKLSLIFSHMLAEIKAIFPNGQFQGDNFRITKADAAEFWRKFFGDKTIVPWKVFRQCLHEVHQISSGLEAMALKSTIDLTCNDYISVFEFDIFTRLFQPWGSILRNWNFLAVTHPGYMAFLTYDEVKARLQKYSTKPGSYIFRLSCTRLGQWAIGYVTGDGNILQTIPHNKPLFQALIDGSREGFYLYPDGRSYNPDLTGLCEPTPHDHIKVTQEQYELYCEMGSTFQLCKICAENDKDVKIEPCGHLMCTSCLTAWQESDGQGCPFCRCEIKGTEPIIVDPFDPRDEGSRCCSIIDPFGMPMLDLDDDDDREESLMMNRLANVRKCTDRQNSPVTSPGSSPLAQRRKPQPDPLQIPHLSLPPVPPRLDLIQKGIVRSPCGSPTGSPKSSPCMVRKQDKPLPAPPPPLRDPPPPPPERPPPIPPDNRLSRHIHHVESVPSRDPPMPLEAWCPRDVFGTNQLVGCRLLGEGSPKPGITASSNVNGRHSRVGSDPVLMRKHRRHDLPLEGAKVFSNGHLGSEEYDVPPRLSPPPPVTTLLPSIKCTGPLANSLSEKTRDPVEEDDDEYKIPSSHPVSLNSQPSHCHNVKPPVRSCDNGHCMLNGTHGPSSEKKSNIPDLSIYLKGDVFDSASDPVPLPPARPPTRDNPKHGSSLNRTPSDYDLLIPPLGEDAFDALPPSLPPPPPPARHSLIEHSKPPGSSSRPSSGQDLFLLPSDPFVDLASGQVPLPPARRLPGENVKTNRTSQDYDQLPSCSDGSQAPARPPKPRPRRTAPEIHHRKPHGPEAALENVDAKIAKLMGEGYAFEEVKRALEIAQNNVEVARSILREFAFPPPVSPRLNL
# experimental protocol: MSD-based assay for degradation of Cbl-B in THP-1 cells
# Type: cell-based
# assay context: Cbl-B degradation, Jurkat cells seeded (heading: THP-1 cells), 24 hours incubation, MSD readout; read-out: Dmax
endpoint label: Dmax

Examples with answers:
INSERT INTO results (compound, observed_value) VALUES
  ('Cn1cnnc1CC1(c2cccc(-n3cc4c(C(F)(F)F)cc(CN5CCC[C@@H](OCCN6CCC(CN7CCN(c8ccc9c(c8)CN([C@H]8CCC(=O)NC8=O)C9=O)CC7)CC6)C5)cn4c3=O)c2)COC1 (single isomer, unassigned)', '> 70%'),
  ('Cn1cnnc1[C@@H](c1cccc(-n2cc3c(C(F)(F)F)cc(CN4CCN(CCc5ccc(N6CCN(c7ccc8c(c7)CN([C@@H]7CCC(=O)NC7=O)C8=O)CC6)cc5)CC4)cn3c2=O)c1)C1CCC1 (single isomer, unassigned)', '50 to 70%'),
  ('Cn1cnnc1CC1(c2cccc(-n3cc4c(C(F)(F)F)cc(CN5CCN(CCN6CCC(CN7CCN(c8ccc9c(c8)CN([C@H]8CCC(=O)NC8=O)C9=O)CC7)CC6)CC5)cn4c3=O)c2)COC1', '> 70%'),
  ('Cn1cnnc1[C@@H](c1cccc(-n2cc3c(C(F)(F)F)cc(CN4CCC(OCc5ccc(C6CCN(c7ccc8c(c7)CN([C@H]7CCC(=O)NC7=O)C8=O)CC6)cc5)CC4)cn3c2=O)c1)C1CCC1 (single isomer, unassigned)', '30 to 50%'),
  ('Cn1cnnc1[C@@H](c1cccc(-n2cc3c(C(F)(F)F)cc(CN4CCN(C(=O)Cc5ccc(C6CCN(c7ccc8c(c7)CN([C@H]7CCC(=O)NC7=O)C8=O)CC6)cc5)CC4)cn3c2=O)c1)C1CCC1 (single isomer, unassigned)', '> 70%'),
  ('Cn1cnnc1CC1(c2cccc(-n3cc4c(C(F)(F)F)cc(CN5CCC[C@H](OCCN6CCC(CN7CCN(c8ccc9c(c8)CN([C@@H]8CCC(=O)NC8=O)C9=O)CC7)CC6)C5)cn4c3=O)c2)COC1 (single isomer, unassigned)', '50 to 70%'),
  ('Cn1cnnc1[C@@H](c1cccc(-n2cc3c(C(F)(F)F)cc(CN4CCC(CC(=O)N5CCC(C6CCN(c7ccc8c(c7)CN([C@@H]7CCC(=O)NC7=O)C8=O)CC6)CC5)CC4)cn3c2=O)c1)C1CCC1 (single isomer, unassigned)', '30 to 50%'),
  ('Cn1cnnc1[C@@H](c1cccc(-n2cc3c(C(F)(F)F)cc(CN4CCN(CC(=O)N5CCC(CN6CCN(c7ccc8c(c7)CN([C@H]7CCC(=O)NC7=O)C8=O)CC6)CC5)CC4)cn3c2=O)c1)C1CCC1 (single isomer, unassigned)', '> 70%'),
  ('Cn1cnnc1[C@@H](c1cccc(-n2cc3c(C(F)(F)F)cc(CN4CCC(OCc5cccc(CN6CCN(c7ccc8c(c7)CN([C@H]7CCC(=O)NC7=O)C8=O)CC6)c5)CC4)cn3c2=O)c1)C1CCC1 (single isomer, unassigned)', '< 30%'),
  ('Cn1cnnc1[C@@H](c1cccc(-n2cc3c(C(F)(F)F)cc(CN4CCC(OCc5ccc(N6CCN(c7ccc8c(c7)CN([C@H]7CCC(=O)NC7=O)C8=O)CC6)cc5)CC4)cn3c2=O)c1)C1CCC1 (single isomer, unassigned)', '50 to 70%');

State the recorded Dmax for this entry: Cn1cnnc1[C@@H](c1cccc(-n2cc3c(C(F)(F)F)cc(CN4CCC(O[C@H]5CCCN(C(=O)c6ccc(N7CCN(c8ccc9c(c8)CN([C@H]8CCC(=O)NC8=O)C9=O)CC7)cc6)C5)CC4)cn3c2=O)c1)C1CCC1 (single isomer, unassigned)
> 70%

What would you report for Cn1cnnc1CC1(c2cccc(-n3cc4c(C(F)(F)F)cc(CN5CCN(C(=O)CN6CCC(CN7CCN(c8ccc9c(c8)CN([C@@H]8CCC(=O)NC8=O)C9=O)CC7)CC6)CC5)cn4c3=O)c2)COC1 (single isomer, unassigned) ?
30 to 50%

What would you report for Cn1cnnc1[C@@H](c1cccc(-n2cc3c(C(F)(F)F)cc(CN4CCN(C(=O)CN5CCC(CN6CCN(c7ccc8c(c7)CN([C@@H]7CCC(=O)NC7=O)C8=O)CC6)CC5)CC4)cn3c2=O)c1)C1CCC1 ?
< 30%

What would you report for Cn1cnnc1[C@@H](c1cccc(-n2cc3c(C(F)(F)F)cc(CN4CCC[C@@H](OCCN5CCC(CN6CCN(c7ccc8c(c7)CN([C@H]7CCC(=O)NC7=O)C8=O)CC6)CC5)C4)cn3c2=O)c1)C1CCC1 (single isomer, unassigned) ?
> 70%

What would you report for CN(CC1CCN(Cc2cc(C(F)(F)F)c3cn(-c4cccc(C5(Cc6nncn6C)COC5)c4)c(=O)n3c2)CC1)C(=O)c1ccc(C2CCN(c3ccc4c(c3)CN([C@H]3CCC(=O)NC3=O)C4=O)CC2)cc1 ?
> 70%

What would you report for Cn1cnnc1CC1(c2cccc(N3Cc4c(cc(CN5CCC(OCCOCc6ccc(COCCNc7cccc8c7C(=O)N(C7CCC(=O)NC7=O)C8=O)cc6)CC5)cc4C(F)(F)F)C3=O)c2)COC1 (stereo not shown) ?
30 to 50%

====

Recorded Dmax, one value per entry.
# tested target: Cbl-B (Homo sapiens)
# Construct: MSD-Based Assay for Degradation of Cbl-B in THP-1 Cells; endogenous in cells; host or cells: THP-1 (title) / Jurkat (protocol text)
# experimental protocol: MSD-based assay for degradation of Cbl-B in THP-1 cells
# Assay type: cell-based
# assay context: Cbl-B degradation, Jurkat cells seeded (heading: THP-1 cells), 24 hours incubation, MSD readout; read-out: Dmax

Examples with answers:
INSERT INTO results (compound, observed_value) VALUES
  ('Cn1cnnc1[C@@H](c1cccc(-n2cc3c(C(F)(F)F)cc(CN4CCN(CC(=O)N5CCC(CN6CCN(c7ccc8c(c7)CN([C@@H]7CCC(=O)NC7=O)C8=O)CC6)CC5)CC4)cn3c2=O)c1)C1CCC1 (single isomer, unassigned) [Compound 121]', '50 to 70%'),
  ('Cn1cnnc1CC1(c2cccc(-n3cc4c(C(F)(F)F)cc(CN5CCC(OCc6ccc(N7CCN(c8ccc9c(c8)CN([C@@H]8CCC(=O)NC8=O)C9=O)CC7)cc6)CC5)cn4c3=O)c2)COC1 (single isomer, unassigned) [Compound 249]', '30 to 50%'),
  ('CN(CCN(C)C(=O)c1cc(C(F)(F)F)c2cn(-c3cccc([C@H](c4nncn4C)C4CCC4)c3)c(=O)n2c1)C(=O)c1ccc(C2CCN(c3ccc4c(c3)CN([C@@H]3CCC(=O)NC3=O)C4=O)CC2)cc1 (single isomer, unassigned) [Compound 197]', '< 30%');

State the recorded Dmax for this entry: Cn1cnnc1CC1(c2cccc(-n3cc4c(C(F)(F)F)cc(CN5CCN(CCc6ccc(N7CCN(c8ccc9c(c8)CN([C@@H]8CCC(=O)NC8=O)C9=O)CC7)cc6)CC5)cn4c3=O)c2)COC1 [Compound 203]
> 70%

====

# tested target: Cbl-B (Homo sapiens, UniProt Q13191)
# Construct: MSD-Based Assay for Degradation of Cbl-B in THP-1 Cells; endogenous in cells; host or cells: THP-1 (title) / Jurkat (protocol text)
# experimental protocol: MSD-based assay for degradation of Cbl-B in THP-1 cells
# Format: cell-based
# assay context: Cbl-B degradation, Jurkat cells seeded (heading: THP-1 cells), 24 hours incubation, MSD readout; read-out: Dmax
Recorded Dmax, one value per entry.

State the recorded Dmax for this entry: Cn1cnnc1[C@@H](c1cccc(-n2cc3c(C(F)(F)F)cc(CN4CCC[C@@H](OCCc5ccc(CN6CCN(c7ccc8c(c7)CN([C@H]7CCC(=O)NC7=O)C8=O)CC6)cc5)C4)cn3c2=O)c1)C1CCC1 (single isomer, unassigned)
50 to 70%

What would you report for Cn1cnnc1[C@@H](c1cccc(-n2cc3c(C(F)(F)F)cc(CN4CCC(OCCN5CCN(CC6CCN(c7ccc8c(c7)CN([C@H]7CCC(=O)NC7=O)C8=O)CC6)CC5)CC4)cn3c2=O)c1)C1CCC1 (single isomer, unassigned) ?
50 to 70%

What would you report for Cn1cnnc1CC1(c2cccc(-n3cc4c(C(F)(F)F)cc(CN5CCC(OCCOCc6ccc(CN7CCN(c8ccc9c(c8)CN([C@H]8CCC(=O)NC8=O)C9=O)CC7)cc6)CC5)cn4c3=O)c2)COC1 (single isomer, unassigned) ?
> 70%

What would you report for Cn1cnnc1[C@@H](c1cccc(-n2cc3c(C(F)(F)F)cc(COCCCN4CCC(CN5CCN(c6ccc7c(c6)CN([C@H]6CCC(=O)NC6=O)C7=O)CC5)CC4)cn3c2=O)c1)C1CCC1 ?
< 30%
